Biological target: Carbonic anhydrase 9 (Homo sapiens)
Provide the recorded pKi for the entries that follow.
Conceptually, pKi converts a concentration in mol/L into minus its log10.

Q. Could you share which pKi value was measured for NS(=O)(=O)c1ccc(/N=c2\scc(-c3ccc(F)cc3F)n2C2CCCCC2)cc1 ?
A. 7.07

Q. And the next one, Cc1ccc(-c2cs/c(=N\c3ccc(S(N)(=O)=O)cc3)n2C2CCCCC2)cc1 ?
A. 7.64

Q. And the next one, NS(=O)(=O)c1ccc(/N=c2\scc(-c3ccccc3)n2C2CCCCC2)cc1 ?
A. 6.45

###

Target: Carbonic anhydrase 9 (Homo sapiens, UniProt Q16790)
Measurement Type: Ki
Phrase the answer as number then unit, nothing more needed.

Q. Could you share which Ki value was measured for NS(=O)(=O)c1ccc(/N=c2\scc(-c3ccc(Cl)cc3)n2C2CCCCC2)cc1 ?
A. 353 nM

Q. And the next one, NS(=O)(=O)c1ccc(/N=c2\scc(-c3cccs3)n2C2CCCCC2)cc1 ?
A. 150 nM

Q. And the next one, NS(=O)(=O)c1ccc(/N=c2\scc(-c3ccc(Cl)cc3Cl)n2C2CCCCC2)cc1 ?
A. 342 nM

Q. And the next one, NS(=O)(=O)c1ccc(/N=c2\scc(-c3ccc(F)cc3)n2C2CCCCC2)cc1 ?
A. 274 nM

Q. And the next one, N#Cc1ccc(-c2cs/c(=N\c3ccc(S(N)(=O)=O)cc3)n2C2CCCCC2)cc1 ?
A. 29.5 nM

Hey, just so you know, these numbers are from ChEMBL document CHEMBL3600366.
